Origin of the recorded values: BindingDB's records for doi:10.1016/j.ejmech.2011.01.008

Reported pIC50 values for a set of compounds
Target sequence: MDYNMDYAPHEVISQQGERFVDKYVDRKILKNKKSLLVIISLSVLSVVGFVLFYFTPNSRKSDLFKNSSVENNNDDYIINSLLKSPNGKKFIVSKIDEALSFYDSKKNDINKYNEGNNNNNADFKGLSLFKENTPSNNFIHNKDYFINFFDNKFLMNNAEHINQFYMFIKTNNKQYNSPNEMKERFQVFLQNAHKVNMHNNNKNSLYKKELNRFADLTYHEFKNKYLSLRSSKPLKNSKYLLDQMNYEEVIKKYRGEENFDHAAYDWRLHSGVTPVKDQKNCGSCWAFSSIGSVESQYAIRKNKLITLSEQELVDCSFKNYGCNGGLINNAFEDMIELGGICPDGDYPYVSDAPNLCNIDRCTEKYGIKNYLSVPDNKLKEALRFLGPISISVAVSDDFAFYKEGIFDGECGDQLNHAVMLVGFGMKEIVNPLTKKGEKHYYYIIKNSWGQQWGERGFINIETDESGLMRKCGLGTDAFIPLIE
pIC50: −log10 of the molar value.

>  <compound>
CN1C(=O)C(C=NCCCNc2ccnc3cc(Cl)ccc23)c2ccccc21 (stereo not drawn)

>  <pIC50>
< 4.30

$$$$
>  <compound>
O=C1Nc2ccccc2C1C=Nc1ccccc1 (stereo not drawn) [3-((phenylamino)methylene)indolin-2-one]

>  <pIC50>
< 4.30

$$$$

get_value(item= CC(C)CCNC(=O)[C@H](CC(C)C)N=CC1C(=O)Nc2ccccc21 (stereo partly drawn) , readout=pIC50) returns < 4.30
